- system: Dual specificity protein kinase CLK2 (Homo sapiens)
- Sequence (P49760 whole entry, looked up): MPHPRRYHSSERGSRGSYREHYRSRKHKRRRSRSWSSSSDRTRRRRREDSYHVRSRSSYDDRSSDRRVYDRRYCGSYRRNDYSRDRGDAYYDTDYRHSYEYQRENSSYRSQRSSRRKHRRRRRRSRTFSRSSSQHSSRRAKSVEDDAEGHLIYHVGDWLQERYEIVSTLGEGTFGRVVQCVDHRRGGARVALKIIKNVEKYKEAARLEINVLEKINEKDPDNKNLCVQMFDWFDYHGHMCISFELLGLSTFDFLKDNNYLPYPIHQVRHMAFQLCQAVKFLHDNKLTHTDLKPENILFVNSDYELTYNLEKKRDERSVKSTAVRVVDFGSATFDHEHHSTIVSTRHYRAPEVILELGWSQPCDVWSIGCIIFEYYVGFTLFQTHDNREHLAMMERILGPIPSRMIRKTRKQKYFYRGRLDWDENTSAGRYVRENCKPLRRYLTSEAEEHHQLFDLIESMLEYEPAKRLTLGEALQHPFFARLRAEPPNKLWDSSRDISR
- protocol-details: Inhibition of human recombinant GST-tagged Clk2 expressed in Baculovirus expression system at 0.25 uM using GRSRSRSRSRSRSRS peptide as substrate incubated for 15 mins in presence of ATP by phosphoimager analysis relative to control
readout: inhibition (%)

Please review the entries below; each comes with its answer.
COc1ccc2sc(C(=O)NC(=O)c3cc(F)ccc3OC)cc2c1 ... 52.6
COc1ccc2sc(C(=O)NC(=O)c3ccc(F)cc3OC)cc2c1 ... 47.1

[A] COc1ccc2sc(C(=O)NC(=O)c3cccc(F)n3)cc2c1
[B] COc1ccc2sc(C(=O)NC(=O)c3ccc(Br)cc3OC)cc2c1
[C] COc1ccc2sc(C(=O)NC(=O)c3cc(Cl)ccc3OC)cc2c1
## Input Parameters: sort_field (inhibition), sort_dir (desc). I would appreciate it if you listed the labels in the requested order.
## Output A, C, B
(A: 53.8%, C: 19.9%, B: 3.4%)
